// reported % Inhibition (urease) for each item listed
- target: UniProt:P07374
- method: biochemical
- Type: biochemical
- condition.parameters: jack bean urease; value in parentheses beside IC50
readout.type: % Inhibition (urease) (%)

>>> reported("Cc1cc(NS(=O)(=O)c2ccc(NC(=O)C(C)c3ccc(-c4ccccc4)c(F)c3)cc2)no1 (centres unmarked) [Conjugate 17]")
86.1
>>> reported("CC(C)Cc1ccc(C(C)C(=O)Nc2ccc(S(=O)(=O)Nc3nccs3)cc2)cc1 (centres unmarked) [Conjugate 6]")
90.6
>>> reported("CC(C(=O)Nc1ccc(S(=O)(=O)Nc2nccs2)cc1)c1ccc(-c2ccccc2)c(F)c1 (centres unmarked) [Conjugate 14]")
60.4
>>> reported("Cc1ccnc(NS(=O)(=O)c2ccc(NC(=O)C(C)c3ccc(-c4ccccc4)c(F)c3)cc2)n1 (centres unmarked) [Conjugate 16]")
86.1
>>> reported("Cc1noc(NS(=O)(=O)c2ccc(NC(=O)C(C)c3ccc(-c4ccccc4)c(F)c3)cc2)c1C (centres unmarked) [Conjugate 13]")
84.6
>>> reported("Cc1noc(NS(=O)(=O)c2ccc(NC(=O)C(C)c3ccc(CC(C)C)cc3)cc2)c1C (centres unmarked) [Conjugate 5]")
84.0
>>> reported("CC(=O)NS(=O)(=O)c1ccc(NC(=O)C(C)c2ccc(CC(C)C)cc2)cc1 (centres unmarked) [Conjugate 10]")
88.9
>>> reported("CC(C(=O)Nc1ccc(S(=O)(=O)Nc2ncccn2)cc1)c1ccc(-c2ccccc2)c(F)c1 (centres unmarked) [Conjugate 15]")
84.1
>>> reported("CC(C)Cc1ccc(C(C)C(=O)Nc2ccc(S(N)(=O)=O)cc2)cc1 (centres unmarked) [Conjugate 4]")
84.2
>>> reported("CC(=O)NS(=O)(=O)c1ccc(NC(=O)C(C)c2ccc(-c3ccccc3)c(F)c2)cc1 (centres unmarked) [Conjugate 18]")
87.1
>>> reported("CC(C(=O)Nc1ccc(S(=O)(=O)NC(=N)N)cc1)c1ccc(-c2ccccc2)c(F)c1 (centres unmarked) [Conjugate 19]")
83.8
>>> reported("NC(N)=S [Thiourea, reference compound]")
92.3
>>> reported("CC(C)Cc1ccc(C(C)C(=O)Nc2ccc(S(=O)(=O)NC(=N)N)cc2)cc1 (centres unmarked) [Conjugate 11]")
78.7
>>> reported("Cc1ccnc(NS(=O)(=O)c2ccc(NC(=O)C(C)c3ccc(CC(C)C)cc3)cc2)n1 (centres unmarked) [Conjugate 8]")
87.7
>>> reported("CC(C(=O)Nc1ccc(S(N)(=O)=O)cc1)c1ccc(-c2ccccc2)c(F)c1 (centres unmarked) [Conjugate 12]")
82.1
>>> reported("Cc1cc(NS(=O)(=O)c2ccc(NC(=O)C(C)c3ccc(CC(C)C)cc3)cc2)no1 (centres unmarked) [Conjugate 9]")
76.7
>>> reported("CC(C)Cc1ccc(C(C)C(=O)Nc2ccc(S(=O)(=O)Nc3ncccn3)cc2)cc1 (centres unmarked) [Conjugate 7]")
71.6

* * *

- target: urease (Canavalia ensiformis)
- method: biochemical
- Type: biochemical, jack bean
- condition.parameters: intercept, the maximum rate at 20 µM of inhibitor concentration
We begin with a simple list: items and their reported Vmax (app).
readout.type: Vmax (app) (µM/min)

>>> reported("Cc1ccnc(NS(=O)(=O)c2ccc(NC(=O)C(C)c3ccc(-c4ccccc4)c(F)c3)cc2)n1 (stereo not shown) [Conjugate 16]")
1.01
>>> reported("CC(C)Cc1ccc(C(C)C(=O)Nc2ccc(S(=O)(=O)Nc3nccs3)cc2)cc1 (stereo not shown) [Conjugate 6]")
1.39
>>> reported("NC(N)=S [Thiourea, reference compound]")
18.61
>>> reported("CC(C(=O)Nc1ccc(S(=O)(=O)Nc2ncccn2)cc1)c1ccc(-c2ccccc2)c(F)c1 (stereo not shown) [Conjugate 15]")
1.89

* * *

Recorded melting point, one value per entry.
readout.type: melting point

>>> reported("CC(C(=O)Nc1ccc(S(=O)(=O)NC(=N)N)cc1)c1ccc(-c2ccccc2)c(F)c1 (centres unmarked) [Conjugate 19]")
"163 to 165 °C"
>>> reported("CC(C(=O)Nc1ccc(S(=O)(=O)Nc2ncccn2)cc1)c1ccc(-c2ccccc2)c(F)c1 (centres unmarked) [Conjugate 15]")
"155 to 158 °C"
>>> reported("CC(C)Cc1ccc(C(C)C(=O)Nc2ccc(S(=O)(=O)Nc3ncccn3)cc2)cc1 (centres unmarked) [Conjugate 7]")
"171 to 173 °C"
>>> reported("CC(C(=O)Nc1ccc(S(=O)(=O)Nc2nccs2)cc1)c1ccc(-c2ccccc2)c(F)c1 (centres unmarked) [Conjugate 14]")
"137 to 140 °C"
>>> reported("CC(C)Cc1ccc(C(C)C(=O)Nc2ccc(S(=O)(=O)NC(=N)N)cc2)cc1 (centres unmarked) [Conjugate 11]")
"138 to 139 °C"
>>> reported("Cc1ccnc(NS(=O)(=O)c2ccc(NC(=O)C(C)c3ccc(CC(C)C)cc3)cc2)n1 (centres unmarked) [Conjugate 8]")
"152 to 154 °C"
>>> reported("Cc1noc(NS(=O)(=O)c2ccc(NC(=O)C(C)c3ccc(-c4ccccc4)c(F)c3)cc2)c1C (centres unmarked) [Conjugate 13]")
"128 to 130 °C"
>>> reported("CC(=O)NS(=O)(=O)c1ccc(NC(=O)C(C)c2ccc(CC(C)C)cc2)cc1 (centres unmarked) [Conjugate 10]")
"152 to 155 °C"

* * *

- target: urease (Canavalia ensiformis)
- method: biochemical
- Type: biochemical, jack bean
- condition.parameters: Lineweaver–Burk plot; inhibitor 0–20 µM; urea 0.5–4.0 mM
readout.type: Mode of Inhibition

>>> reported("CC(=O)NS(=O)(=O)c1ccc(NC(=O)C(C)c2ccc(CC(C)C)cc2)cc1 (stereo not drawn) [Conjugate 10]")
"Mixed"
>>> reported("CC(C)Cc1ccc(C(C)C(=O)Nc2ccc(S(N)(=O)=O)cc2)cc1 (stereo not drawn) [Conjugate 4]")
"Mixed"
>>> reported("NC(N)=S [Thiourea, reference compound]")
"Competitive"
>>> reported("Cc1ccnc(NS(=O)(=O)c2ccc(NC(=O)C(C)c3ccc(-c4ccccc4)c(F)c3)cc2)n1 (stereo not drawn) [Conjugate 16]")
"Mixed"
>>> reported("CC(C(=O)Nc1ccc(S(=O)(=O)Nc2ncccn2)cc1)c1ccc(-c2ccccc2)c(F)c1 (stereo not drawn) [Conjugate 15]")
"Competitive"
>>> reported("CC(=O)NS(=O)(=O)c1ccc(NC(=O)C(C)c2ccc(-c3ccccc3)c(F)c2)cc1 (stereo not drawn) [Conjugate 18]")
"Mixed"
>>> reported("Cc1ccnc(NS(=O)(=O)c2ccc(NC(=O)C(C)c3ccc(CC(C)C)cc3)cc2)n1 (stereo not drawn) [Conjugate 8]")
"Mixed"
>>> reported("CC(C)Cc1ccc(C(C)C(=O)Nc2ccc(S(=O)(=O)Nc3nccs3)cc2)cc1 (stereo not drawn) [Conjugate 6]")
"Competitive"
>>> reported("Cc1cc(NS(=O)(=O)c2ccc(NC(=O)C(C)c3ccc(-c4ccccc4)c(F)c3)cc2)no1 (stereo not drawn) [Conjugate 17]")
"Competitive"

* * *

- target: urease (Canavalia ensiformis, UniProt P07374)
- Sequence (P07374 whole entry, looked up): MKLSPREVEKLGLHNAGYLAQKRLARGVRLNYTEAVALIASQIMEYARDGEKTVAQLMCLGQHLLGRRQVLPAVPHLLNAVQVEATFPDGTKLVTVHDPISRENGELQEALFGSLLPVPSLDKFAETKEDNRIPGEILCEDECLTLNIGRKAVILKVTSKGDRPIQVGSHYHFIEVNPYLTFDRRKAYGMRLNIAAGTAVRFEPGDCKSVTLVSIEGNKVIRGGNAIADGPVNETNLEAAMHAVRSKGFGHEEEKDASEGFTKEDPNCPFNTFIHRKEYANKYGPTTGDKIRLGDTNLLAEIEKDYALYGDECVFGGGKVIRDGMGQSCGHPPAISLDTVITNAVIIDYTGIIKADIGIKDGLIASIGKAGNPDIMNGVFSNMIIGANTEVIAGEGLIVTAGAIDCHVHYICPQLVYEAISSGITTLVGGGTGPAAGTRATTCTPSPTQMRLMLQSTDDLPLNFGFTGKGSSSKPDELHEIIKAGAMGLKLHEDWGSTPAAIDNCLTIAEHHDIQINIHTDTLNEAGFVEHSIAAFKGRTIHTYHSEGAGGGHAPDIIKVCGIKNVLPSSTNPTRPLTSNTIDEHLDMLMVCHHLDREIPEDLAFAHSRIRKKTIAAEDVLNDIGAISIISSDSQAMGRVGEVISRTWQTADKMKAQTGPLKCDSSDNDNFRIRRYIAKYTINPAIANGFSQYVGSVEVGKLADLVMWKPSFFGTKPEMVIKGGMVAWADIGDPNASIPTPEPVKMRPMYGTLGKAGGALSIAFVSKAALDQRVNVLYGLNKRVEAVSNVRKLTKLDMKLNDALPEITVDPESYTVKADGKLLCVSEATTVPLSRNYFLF
- method: biochemical
- Assay type: biochemical, jack bean
- condition.parameters: intercept, the maximum rate at 20 µM of inhibitor concentration
readout.type: Vmax (app) (µM/min)

>>> reported("CC(=O)NS(=O)(=O)c1ccc(NC(=O)C(C)c2ccc(-c3ccccc3)c(F)c2)cc1 (centres unmarked) [Conjugate 18]")
1.02
>>> reported("CC(C)Cc1ccc(C(C)C(=O)Nc2ccc(S(N)(=O)=O)cc2)cc1 (centres unmarked) [Conjugate 4]")
3.64
>>> reported("Cc1ccnc(NS(=O)(=O)c2ccc(NC(=O)C(C)c3ccc(CC(C)C)cc3)cc2)n1 (centres unmarked) [Conjugate 8]")
3.0
>>> reported("Cc1cc(NS(=O)(=O)c2ccc(NC(=O)C(C)c3ccc(-c4ccccc4)c(F)c3)cc2)no1 (centres unmarked) [Conjugate 17]")
1.56
>>> reported("CC(=O)NS(=O)(=O)c1ccc(NC(=O)C(C)c2ccc(CC(C)C)cc2)cc1 (centres unmarked) [Conjugate 10]")
1.04

* * *

- target: urease (Canavalia ensiformis)
- method: biochemical
- Format: biochemical, jack bean
pKi: −log10 of the molar value.
Each entry below lists one item and its recorded pKi value.
readout.type: pKi

>>> reported("Cc1cc(NS(=O)(=O)c2ccc(NC(=O)C(C)c3ccc(-c4ccccc4)c(F)c3)cc2)no1 (centres unmarked) [Conjugate 17]")
4.98
>>> reported("CC(C)Cc1ccc(C(C)C(=O)Nc2ccc(S(=O)(=O)Nc3nccs3)cc2)cc1 (centres unmarked) [Conjugate 6]")
6.77
>>> reported("CC(C)Cc1ccc(C(C)C(=O)Nc2ccc(S(N)(=O)=O)cc2)cc1 (centres unmarked) [Conjugate 4]")
5.09
>>> reported("Cc1ccnc(NS(=O)(=O)c2ccc(NC(=O)C(C)c3ccc(-c4ccccc4)c(F)c3)cc2)n1 (centres unmarked) [Conjugate 16]")
5.89
>>> reported("CC(C(=O)Nc1ccc(S(=O)(=O)Nc2ncccn2)cc1)c1ccc(-c2ccccc2)c(F)c1 (centres unmarked) [Conjugate 15]")
5.10
>>> reported("CC(=O)NS(=O)(=O)c1ccc(NC(=O)C(C)c2ccc(CC(C)C)cc2)cc1 (centres unmarked) [Conjugate 10]")
5.58
>>> reported("Cc1ccnc(NS(=O)(=O)c2ccc(NC(=O)C(C)c3ccc(CC(C)C)cc3)cc2)n1 (centres unmarked) [Conjugate 8]")
5.52
>>> reported("CC(=O)NS(=O)(=O)c1ccc(NC(=O)C(C)c2ccc(-c3ccccc3)c(F)c2)cc1 (centres unmarked) [Conjugate 18]")
5.39
